Reported pIC50 is given for each of the following molecules.
Target: human CRTH2 (Homo sapiens, UniProt Q9Y5Y4)
Construct: expressed in transfected cells
Sequence (Q9Y5Y4 1-395): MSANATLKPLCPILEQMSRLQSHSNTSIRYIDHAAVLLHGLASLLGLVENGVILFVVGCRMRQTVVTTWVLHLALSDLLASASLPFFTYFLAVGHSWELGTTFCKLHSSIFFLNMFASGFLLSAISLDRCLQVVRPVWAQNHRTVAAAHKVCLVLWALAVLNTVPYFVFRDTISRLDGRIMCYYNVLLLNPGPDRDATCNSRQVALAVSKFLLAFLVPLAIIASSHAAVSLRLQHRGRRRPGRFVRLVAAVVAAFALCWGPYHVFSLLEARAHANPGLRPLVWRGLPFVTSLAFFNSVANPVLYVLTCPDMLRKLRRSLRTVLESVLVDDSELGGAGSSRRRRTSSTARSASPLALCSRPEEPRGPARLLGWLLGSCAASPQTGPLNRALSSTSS
Test: [35S]GTPγS binding assay (SPA) on membranes from CHO-K1 cells stably expressing human CRTH2, stimulated with 60 nM DHK-PGD2
Type: biochemical
Conditions: potency class symbols; Table 2; read-out: CRTH2 hGTPγS IC50
pIC50: −log10 of the molar value.
parameter: pIC50

1) CN(Cc1ccc(OCC(=O)O)c(-c2cnn(C)c2)c1)S(=O)(=O)c1ccc(F)cc1 [Example 186]	5.00 to 6.00
2) COCc1cccc(-c2cc(CN(C)S(=O)(=O)c3ccc(F)cc3)ccc2OCC(=O)O)c1 [Example 114]	6.00 to 7.00
3) CN(Cc1ccc(OCC(=O)O)c(-c2cccc(S(C)(=O)=O)c2)c1)S(=O)(=O)c1cc(F)cc(F)c1 [Example 72]	> 7.00
4) CN(Cc1ccc(OCC(=O)O)c(-c2cccc(C(F)(F)F)c2)c1)S(=O)(=O)c1ccc(F)cc1 [Example 95]	> 7.00
5) CN(Cc1ccc(OCC(=O)O)c(-c2ccc(Cl)cc2)c1)S(=O)(=O)c1ccc(F)cc1 [Example 165]	5.00 to 6.00
6) CN(Cc1ccc(OCC(=O)O)c(-c2cncc(S(C)(=O)=O)c2)c1)S(=O)(=O)c1ccc(F)cc1 [Example 75]	> 7.00
7) CN(Cc1ccc(OCC(=O)O)c(-c2cc(F)cc(Cl)c2)c1)S(=O)(=O)c1ccccc1 [Example 150]	6.00 to 7.00
8) CN(Cc1ccc(OCC(=O)O)c(-c2cccc(Br)c2)c1)S(=O)(=O)c1ccc(F)cc1 [Example 142]	6.00 to 7.00
9) CN(Cc1ccc(OCC(=O)O)c(-c2cc(F)cc(C#N)c2)c1)S(=O)(=O)c1ccc(F)c(Cl)c1 [Example 55]	> 7.00
10) CNS(=O)(=O)c1cccc(-c2cc(CN(C)S(=O)(=O)c3ccc(F)c(Cl)c3)ccc2OCC(=O)O)c1 [Example 16]	> 7.00
11) CN(Cc1ccc(OCC(=O)O)c(-c2cc(F)cc(F)c2)c1)S(=O)(=O)c1ccc(F)c(Cl)c1 [Example 67]	> 7.00
12) CN(Cc1ccc(OCC(=O)O)c(-c2cc(F)cc(C#N)c2)c1)S(=O)(=O)c1cccc(Cl)c1 [Example 45]	> 7.00
13) CN(Cc1ccc(OCC(=O)O)c(-c2cccc(S(C)(=O)=O)c2)c1)S(=O)(=O)c1ccccc1 [Example 78]	> 7.00
14) Cc1ccc(S(=O)(=O)N(C)Cc2ccc(OCC(=O)O)c(-c3cccc(C#N)c3)c2)cc1 [Example 109]	6.00 to 7.00
15) Cc1cc(S(=O)(=O)N(C)Cc2ccc(OCC(=O)O)c(-c3cccc(C#N)c3)c2)ccc1F [Example 66]	> 7.00
